Listed here are molecules together with their documented selectivity ratio.
# Assay info: in vitro
# Condition details: dog, MDCK cells

Example entries and their recorded answers appear below.
C=CCCC(=O)NC(=N)N[C@H]1CC(C(=O)O)=C[C@@H](OC(CC)CC)[C@@H]1NC(C)=O
> 139
CCC(CC)O[C@@H]1C=C(C(=O)O)C[C@H](NC(=N)NC(=O)c2ccc([N+](=O)[O-])cc2)[C@H]1NC(C)=O
> 7.4
CCC(=O)NC(=N)N[C@H]1CC(C(=O)O)=C[C@@H](OC(CC)CC)[C@@H]1NC(C)=O
> 26.8

State its selectivity ratio: CCC(CC)O[C@@H]1C=C(C(=O)O)C[C@H](NC(=N)NC(=O)Cc2ccc(Br)cc2)[C@H]1NC(C)=O
> 14.5

# return recorded selectivity ratio for entry CCC(CC)O[C@@H]1C=C(C(=O)O)C[C@H](NC(=N)NC(=O)CCc2ccc(OC)c(OC)c2)[C@H]1NC(C)=O
> 43.4

Identify measured selectivity ratio corresponding to CCC(CC)O[C@@H]1C=C(C(=O)O)C[C@H](NC(=N)NC(=O)Cc2ccc3ccccc3c2)[C@H]1NC(C)=O
> 88.6

Attribution: ChEMBL document CHEMBL4024722
